Reported Papp A→B by item:
- assay protocol: MDCK cell permeability assay
- Format: in vitro ADME
- condition parameters: dog, without Pgp inhibitor
Peptide text beside a SMILES is read from it. * marks the point of attachment. X1 = C=CC(=O)NCCCCC(NC(=O)OCc1ccccc1)C(=O)N1CCN(C(=O)C(CCC(=O)*)NC(=O)c2cccc3ccccc23)CC1
Number in ×10⁻⁶ cm/s, nothing else.

[[record]]
compound = "C=CC(=O)NCCCCC(NC(=O)OCc1ccccc1)C(=O)N1CCN(C(=O)C(CCC(=O)NCC(=O)NCC(=O)NCC(=O)NC(CC(=O)O)C(=O)NC(CC(=O)O)C(=O)NC(CC(=O)O)C(=O)O)NC(=O)c2cccc3ccccc23)CC1 (centres unmarked) [Compound 18] (X1-GGGDDD-OH; configuration not given here)"
measured_attribute = "Papp A→B"
measurement_unit = "×10⁻⁶ cm/s"
test_result = 0.47


Incoming: What value of measured Papp A→B is listed for C=CC(=O)NCCCCC(NC(=O)OCc1ccccc1)C(=O)N1CCN(C(=O)C(CCC(=O)NCCCCCC(=O)NC(CC(=O)O)C(=O)NC(CC(=O)O)C(=O)NC(CC(=O)O)C(=O)O)NC(=O)c2cccc3ccccc23)CC1 (centres unmarked) [Compound 17] ?
Outgoing: 0.31

----------
Reported kinact/KI by item:
- tested target: Recombinant human TG2 (Homo sapiens, UniProt P21980)
- Construct: GST (with PSP protease site, plasmid pGST-PSP-rhTG2) (N, cleaved yes); made in house; host or cells: E. coli (BL21)
- Sequence (P21980 1-687): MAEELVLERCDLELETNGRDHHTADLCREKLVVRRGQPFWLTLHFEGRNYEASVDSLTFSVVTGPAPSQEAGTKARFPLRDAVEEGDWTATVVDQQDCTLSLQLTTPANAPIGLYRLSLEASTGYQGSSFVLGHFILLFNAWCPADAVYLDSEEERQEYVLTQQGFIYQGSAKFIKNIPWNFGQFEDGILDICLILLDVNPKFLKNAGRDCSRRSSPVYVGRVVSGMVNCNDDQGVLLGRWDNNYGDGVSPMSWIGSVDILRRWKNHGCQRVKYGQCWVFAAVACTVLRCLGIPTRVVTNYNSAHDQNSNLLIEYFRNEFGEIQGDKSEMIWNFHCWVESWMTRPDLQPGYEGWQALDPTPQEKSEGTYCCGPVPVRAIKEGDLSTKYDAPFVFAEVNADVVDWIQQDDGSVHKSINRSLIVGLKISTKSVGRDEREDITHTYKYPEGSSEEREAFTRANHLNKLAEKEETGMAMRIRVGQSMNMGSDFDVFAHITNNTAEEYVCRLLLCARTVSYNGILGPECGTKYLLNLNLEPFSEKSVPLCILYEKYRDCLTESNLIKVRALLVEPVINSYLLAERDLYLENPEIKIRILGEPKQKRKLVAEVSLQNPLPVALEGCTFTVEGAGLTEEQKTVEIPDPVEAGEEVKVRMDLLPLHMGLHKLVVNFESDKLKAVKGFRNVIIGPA
- assay protocol: rhTG2 inhibition assay, continuous chromogenic substrate AL5, Kitz and Wilson conditions
- Assay type: biochemical
- condition parameters: * double reciprocal model; ** lowest concentrations of saturation plot fitted to a linear model
Peptide text beside a SMILES is read from it. * marks the point of attachment. X1 = C=CC(=O)NCCCCC(NC(=O)OCc1ccccc1)C(=O)N1CCN(C(=O)C(CCC(=O)*)NC(=O)c2cccc3ccccc23)CC1
Number in M⁻¹ s⁻¹, nothing else.

Past entries and their recorded results:
[[record]]
molecule = "C=CC(=O)NCCCCC(NC(=O)OCc1ccccc1)C(=O)N1CCN(C(=O)C(CCC(=O)NCCCCCC(=O)NC(CC(=O)O)C(=O)NC(CC(=O)O)C(=O)NC(CC(=O)O)C(=O)O)NC(=O)c2cccc3ccccc23)CC1 (stereo not shown)"
test_result = 6820

[[record]]
molecule = "C=CC(=O)NCCCCC(NC(=O)OCc1ccccc1)C(=O)N1CCN(C(=O)C(CCC(=O)NCC(=O)NCC(=O)NCC(=O)NC(CC(=O)O)C(=O)NC(CC(=O)O)C(=O)NC(CC(=O)O)C(=O)O)NC(=O)c2cccc3ccccc23)CC1 (stereo not shown) [Compound 18] (X1-GGGDDD-OH; configuration not given here)"
test_result = 9380

[[record]]
molecule = "C=CC(=O)NCCCC[C@H](NC(=O)OCc1ccccc1)C(=O)N1CCN(C(=O)[C@H](CCC(=O)NCCCCCNC(=O)c2cc3ccc(N(CC)CC)cc3oc2=O)NC(=O)c2cccc3ccccc23)CC1"
test_result = 3130


Next:
Incoming: What value of measured kinact/KI is listed for C#CCNC(=O)CC[C@H](NC(=O)c1cccc2ccccc12)C(=O)N1CCN(C(=O)[C@H](CCCCNC(=O)C=C)NC(=O)OCc2ccccc2)CC1 ?
Outgoing: 8280

Origin of measurements: paper PMC10454375
